B1: POU domain, class 3, transcription factor 3, residues 320 to 388; numbered along this chain, P20264 (parent)
chain: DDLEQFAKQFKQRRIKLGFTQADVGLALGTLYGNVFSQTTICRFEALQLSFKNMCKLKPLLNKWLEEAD

Variants of: B1
Assay details: abundance fitness (aPCA) (normalised: wild type 0, dead -1); higher = more abundant; growth selection in yeast, the domain comes from the species named
Assay context: Homo sapiens
Experimental endpoint: abundance fitness

Sample records with abundance fitness:
- Mutant: "L31F"
  Experimental endpoint: "abundance fitness"
  Val: -0.023
- Mutant: "Q38Y"
  Experimental endpoint: "abundance fitness"
  Val: -0.207
- Mutant: "V24L"
  Experimental endpoint: "abundance fitness"
  Val: -0.679

Consider the following items and state reported abundance fitness for each.
1. N34S
2. T39R
3. N34G

1. 0.109
2. -0.058
3. 0.074
